B1: Azoarcus group I ribozyme (parent)
chain: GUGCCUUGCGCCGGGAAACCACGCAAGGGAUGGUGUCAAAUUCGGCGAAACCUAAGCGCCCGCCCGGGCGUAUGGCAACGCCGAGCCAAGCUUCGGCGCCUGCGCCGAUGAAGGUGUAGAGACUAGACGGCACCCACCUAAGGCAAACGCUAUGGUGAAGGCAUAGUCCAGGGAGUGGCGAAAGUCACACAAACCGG

variants of: B1; assay: reverse-splicing fitness (ratio to wild type); higher = more active; in vitro selection; Mg2+ level not given
reverse-splicing fitness values for the variants below.

query: Find the recorded reverse-splicing fitness belonging to C82U A111U A120G A145U U176C and report it.
result: 0.0131

query: Find the recorded reverse-splicing fitness belonging to C82G A111C A120U A145U C169A U176G and report it.
result: 0.00195

query: Find the recorded reverse-splicing fitness belonging to C82G A111C A120C C150G C169A U176C and report it.
result: 0.0137

query: Find the recorded reverse-splicing fitness belonging to C82G A111G C150G U176G and report it.
result: 0.00548

query: Find the recorded reverse-splicing fitness belonging to C82A A111G A120C C150U U176A and report it.
result: 0.0143
